test_system: PIK3CA (human) (UniProt P42336)
Sequence (P42336 whole entry, looked up): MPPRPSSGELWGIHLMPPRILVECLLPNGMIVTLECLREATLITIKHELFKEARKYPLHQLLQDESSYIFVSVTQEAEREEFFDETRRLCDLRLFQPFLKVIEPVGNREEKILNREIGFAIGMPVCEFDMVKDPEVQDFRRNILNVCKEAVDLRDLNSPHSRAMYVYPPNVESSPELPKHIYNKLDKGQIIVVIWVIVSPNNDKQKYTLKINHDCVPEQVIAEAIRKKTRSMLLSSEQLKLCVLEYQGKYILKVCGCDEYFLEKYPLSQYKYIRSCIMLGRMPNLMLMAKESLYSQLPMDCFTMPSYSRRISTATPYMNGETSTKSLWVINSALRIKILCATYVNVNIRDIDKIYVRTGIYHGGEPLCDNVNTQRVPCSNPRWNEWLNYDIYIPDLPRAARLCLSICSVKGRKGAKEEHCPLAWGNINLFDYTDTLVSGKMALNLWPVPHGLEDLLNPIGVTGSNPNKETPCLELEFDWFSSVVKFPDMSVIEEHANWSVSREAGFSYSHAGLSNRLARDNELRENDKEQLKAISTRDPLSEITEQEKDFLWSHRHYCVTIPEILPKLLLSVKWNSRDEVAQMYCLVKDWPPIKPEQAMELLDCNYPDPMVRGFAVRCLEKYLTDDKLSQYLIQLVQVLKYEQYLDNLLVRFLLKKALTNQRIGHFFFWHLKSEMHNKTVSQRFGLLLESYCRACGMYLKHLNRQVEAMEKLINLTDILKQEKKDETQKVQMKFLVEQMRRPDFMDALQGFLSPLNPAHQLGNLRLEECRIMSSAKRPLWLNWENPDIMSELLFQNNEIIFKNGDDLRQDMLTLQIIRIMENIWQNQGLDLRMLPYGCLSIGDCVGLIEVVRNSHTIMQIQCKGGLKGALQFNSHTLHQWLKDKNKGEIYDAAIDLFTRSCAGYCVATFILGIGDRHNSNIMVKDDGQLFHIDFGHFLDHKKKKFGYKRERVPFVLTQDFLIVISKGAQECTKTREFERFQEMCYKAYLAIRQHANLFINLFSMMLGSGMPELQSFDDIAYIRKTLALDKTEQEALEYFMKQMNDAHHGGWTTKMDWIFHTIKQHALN
test_summary: Assessment of Cell Proliferation in PC3 Cells
test_settings: pc-3
assay_endpoint: pEC50
// pEC50: -log10(molar conc.)

> print(dat)
                                   compound                      test.system  value.observed
1  CC1c2nc3c(N4CCOCC4)nc(-c4cnc(N)nc4)nc3n2CCN1C (stereo unspecified)  PIK3CA (human) (UniProt P42336)            5.72
2  Oc1cccc(-c2nc(N3CCOCC3)c3nc4n(c3n2)CCOC4C(F)(F)F)c1 (stereo unspecified)  PIK3CA (human) (UniProt P42336)            5.96
3  C[C@@H]1CN(c2nc(-c3cnc(N)nc3)nc3c2nc2n3CCOC2(C)C)C[C@H](C)O1  PIK3CA (human) (UniProt P42336)            5.42

Any idea what pEC50 came out for "Nc1ncc(-c2nc(N3CCOCC3)c3nc4n(c3n2)CCO[C@H]4C(F)(F)F)cn1" on PIK3CA (human) (UniProt P42336)? 6.16

Lab note: need pEC50 for "CC1(C)OCCc2c1sc1c(N3CCOCC3)nc(-c3cnc(N)nc3)nc21" on PIK3CA (human) (UniProt P42336), anyone have it? 6.67

What is its pEC50 for PIK3CA (human) (UniProt P42336)? Entry: "CC1(C)OCCn2c1cc1c(N3CCOCC3)nc(-c3cnc(N)nc3)nc12" 6.73

====

test_system: PIK3CA (human) (UniProt P42336)
test_summary: Assessment of Cell Proliferation in MDA-MB-361.1 Cells
test_settings: mda-mb-361
assay_endpoint: EC50 (nM)
Only the number, expressed in nM, is required.

> print(dat)
                                   compound  value.observed
1  Oc1cccc(-c2nc(N3CCOCC3)c3nc4n(c3n2)CCOC4C(F)(F)F)c1 (stereo not given)             920
2  Nc1ncc(-c2nc(N3CCOCC3)c3nc4n(c3n2)CCO[C@H]4C(F)(F)F)cn1             424
3  CC1(C)CCn2c(nc3c(N4CCOCC4)nc(-c4cnc(N)nc4)nc32)O1             958
4  CC1(C)OCCn2c1cc1c(N3CCOCC3)nc(-c3cnc(N)nc3)nc12              94

From here, focus on the item given below.
Would you mind telling me what EC50 value was observed for CC1c2nc3c(N4CCOCC4)nc(-c4cnc(N)nc4)nc3n2CCN1C (stereo not given) ? 889

====

test_system: PIK3CA (human) (UniProt P42336)
test_summary: Assessment of Cell Proliferation in MDA-MB-361.1 Cells
test_settings: mda-mb-361
assay_endpoint: pEC50
Note on pEC50: it is the negative log10 of concentration, concentration in mol/L.

# example entries with known answers
> print(dat)
                                   compound  assay.endpoint  value.observed
1  C[C@@H]1CN(c2nc(-c3cnc(N)nc3)nc3c2nc2n3CCOC2(C)C)C[C@H](C)O1           pEC50            5.51
2  CC1(C)OCCn2c1nc1c(N3CCOCC3)nc(-c3ccc(N)cn3)nc12           pEC50            5.00
3  CN(C)c1cnc(-c2nc(N3CCOCC3)c3nc4n(c3n2)CCOC4(C)C)cn1           pEC50            5.00
4  CC1(C)OCCc2c1sc1c(N3CCOCC3)nc(-c3cnc(N)nc3)nc21           pEC50            6.63

# value lookup — system PIK3CA (human) (UniProt P42336), readout pEC50, item FC(F)(F)C1OCCn2c1nc1c(N3CCOCC3)nc(-c3cccc4[nH]ncc34)nc12 (stereo unspecified) 5.36

GET /values?readout=pEC50&system=PIK3CA (human) (UniProt P42336)&item= "CC1(C)OCCn2c1nc1c(N3C[C@@H]4C[C@H]3CO4)nc(-c3cnc(N)nc3)nc12" 5.47
